Data provenance is PubChem BioAssay (Tox21).

experiment: qHTS assay to identify small molecule antagonists of the estrogen receptor alpha (ER-alpha) signaling pathway - cell viability counter screen (AID 743074); details: ERalpha-bla HEK293 viability, CellTiter-Glo luminescence, 18 h; series mostly up to 69.4 µM;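 also: HEK293 cells carrying ER-alpha-UAS-bla reporter stimulated with 17beta-estradiol; % is scaled to controls: 0 for no effect and ±100 for the full control effect; nearly all actives have a fitted effect of over 45% in size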
Inconclusive results are not listed. Calls of active or inactive are those of the source. Calls follow the shape of the full dose curve.
Assay readout: activity, negative = cytotoxicity

Study these solved cases before continuing.
Cc1cc(Cl)c(C)cc1Cl	inactive
CCN(C)C(=O)Oc1cccc([C@H](C)N(C)C)c1	inactive
C[C@@H](Oc1ccc(CNC(=O)c2cccnc2Oc2ccc3c(c2)OCO3)c(F)c1)C(=O)O	inactive
CC1=C(C(=O)O)N2C(=O)[C@@H](NC(=O)[C@H](N)c3ccc(O)cc3)[C@H]2SC1	inactive
CCCCCCCCCCCCCC	inactive

Next compound, activity, negative = cytotoxicity to be filled in.
Dear colleague, I am looking for the recorded activity, negative = cytotoxicity of the following compound: "CC(=O)Nc1ccc(S(=O)(=O)Cl)cc1" inactive

====

assay: qHTS assay to test for compound auto fluorescence at 460 nm (blue) in HepG2 cell free culture (AID 720685); details: Cell-free culture medium, blue autofluorescence 405/460 nm; series mostly up to 91.3 µM; also: % is scaled to controls: 0 for no effect and ±100 for the full control effect
Active and inactive are the calls of the source. Calls follow the shape of the dose curve; as a rule, active = well fitted curve in the direction sought with a large enough effect in the repeat runs; inconclusive = weak or mixed curves; inactive = flat fitted curve, though single readings scatter.
Assay readout: fluorescence, % of fluorescent control

Reference set (4 entries):
O=C(c1ccc(O)cc1)c1ccc(O)c(O)c1O	inactive
CC1=C(C(=O)O)N2C(=O)[C@@H](NC(=O)[C@H](N)c3ccc(O)cc3)[C@H]2SC1	0.197% [at 18.6 µM] (inactive)
CC[C@H](C)C(=O)O[C@H]1C[C@H](O)C=C2C=C[C@H](C)[C@H](CC[C@@H](O)C[C@@H](O)CC(=O)O)[C@H]21	inactive
CC(C)=O	inactive

Please report the recorded fluorescence, % of fluorescent control for CC(S)C(=O)NCC(=O)O (stereo unspecified) . inactive

Item: "O=C(O)c1ccc(Cl)cc1Cl" inactive

====

experiment: qHTS assay to identify small molecule that activate the aryl hydrocarbon receptor (AhR) signaling pathway - cell viability counter screen (AID 743086); details: HepG2-AhR-luc viability, CellTiter-Fluor, 24 h; series mostly up to 70.3 µM; also: nearly all actives have a fitted effect of over 45% in size
Results filed as inconclusive are left out. Active and inactive are the calls of the source. Calls follow the shape of the dose curve; as a rule, active = well fitted cell-killing curve with a large enough effect in the repeat runs; inconclusive = weak or mixed curves, or effect the other way; inactive = flat fitted curve, though single readings scatter.
Mark one answer only. Choices: 1 = active, -1 = inactive

Example entries and their recorded answers appear below.
CCOC(=O)CC(=O)c1ccccc1	-1
O=C(CCNNC(=O)c1ccncc1)NCc1ccccc1	-1
CCCCNc1ccc(C(=O)OCCN(C)C)cc1	-1
CCCCCOC(=O)CCC	-1
CC(C)CC(C)CC(C)CC(C)COC(=O)c1ccccc1C(=O)OCC(C)CC(C)CC(C)CC(C)C (configuration not stated)	-1

Which outcome did this test record for the molecule "O=C(O)c1cc(Cl)cc([N+](=O)[O-])c1Cl" ? -1

Lookup "CCCCCCCCCCl" -1

Record: "CCCCCCOC(=O)CC" -1

How about this molecule: "Nc1ccc([N+](=O)[O-])c(N)c1" 1

Ok, now "CC(=C(CCOC(=O)C(C)C)SSC(CCOC(=O)C(C)C)=C(C)N(C=O)Cc1cnc(C)nc1N)N(C=O)Cc1cnc(C)nc1N" -1

Can you check COC(=O)CCc1ccc(OCC(O)CNC(C)C)cc1 (configuration not stated) next? -1

Entry to check: "CNC(=O)[C@H]1O[C@@H](n2cnc3c(NCc4cc(Cl)ccc4OCc4cc(C)no4)ncnc32)[C@H](O)[C@@H]1N" -1
